Test system: Mycobacterium tuberculosis
ASSAY_SUMMARY: Antitubercular activity against Mycobacterium tuberculosis H37Rv ATCC 27294 by BACTEC 960 assay
Type: functional
OBSERVED_PROPERTY: log10(MIC) (log10 of the value in µM)

{"MOLECULE": "CCCc1cc(C(=O)NN)ccn1", "TEST_VALUE": 1.74}
{"MOLECULE": "Cc1cnccc1C(=O)NN", "TEST_VALUE": 3.12}
{"MOLECULE": "NNC(=O)c1ccnc(NN)c1", "TEST_VALUE": -0.38}
{"MOLECULE": "O=C(NNC(=O)C(O)C(O)C(O)CO)c1ccncc1 (centres undefined)", "TEST_VALUE": -0.30}
{"MOLECULE": "CC1CCC(NNC(=O)c2ccncc2)CC1 (centres undefined)", "TEST_VALUE": 1.33}
{"MOLECULE": "CCCCCC/C=N/NC(=O)c1ccncc1", "TEST_VALUE": -0.89}
{"MOLECULE": "CC(C)(C#N)NNC(=O)c1ccncc1", "TEST_VALUE": -0.53}
{"MOLECULE": "CCc1cc(C(=O)NN)ccn1", "TEST_VALUE": 1.32}
{"MOLECULE": "O=C(NN=C1CCCC1)c1ccncc1", "TEST_VALUE": -0.70}
{"MOLECULE": "CC(=O)Nc1ccc(/C=N\\NC(=O)c2ccncc2)cc1", "TEST_VALUE": -0.55}
{"MOLECULE": "N/C(COc1ccc(Cl)cc1)=N\\NC(=O)c1ccncc1", "TEST_VALUE": 1.01}
{"MOLECULE": "Nc1ccc(S(=O)(=O)NNC(=O)c2ccncc2)cc1", "TEST_VALUE": 3.31}
{"MOLECULE": "O=CNNC(=O)c1ccncc1", "TEST_VALUE": 1.26}
{"MOLECULE": "C/C(=N\\NC(=O)c1ccncc1)c1cccc(CN2CCN(C)CC2)c1O", "TEST_VALUE": 0.53}
{"MOLECULE": "NNC(=O)c1ccnc(Br)c1", "TEST_VALUE": 1.84}
{"MOLECULE": "O=C(NN=C1CCCCC1)c1ccncc1", "TEST_VALUE": -1.55}
{"MOLECULE": "NNC(=O)c1ccnc(Cc2ccccc2)c1", "TEST_VALUE": 1.59}
{"MOLECULE": "O=C(NNS(=O)(=O)c1ccc([N+](=O)[O-])cc1)c1ccncc1", "TEST_VALUE": 2.27}
{"MOLECULE": "CC1CCC(=NNC(=O)c2ccncc2)CC1 (centres undefined)", "TEST_VALUE": -0.52}
{"MOLECULE": "CC(=O)NCc1cc(C(=O)NN)ccn1", "TEST_VALUE": 2.39}
{"MOLECULE": "O=C(NNCc1ccco1)c1ccncc1", "TEST_VALUE": 1.84}
{"MOLECULE": "O=C(N/N=C/c1ccc(CO)cc1)c1ccncc1", "TEST_VALUE": -0.57}
{"MOLECULE": "CCCCN(CCCC)Cc1cccc(/C(C)=N/NC(=O)c2ccncc2)c1O", "TEST_VALUE": 0.65}
{"MOLECULE": "NNC(=O)c1ccnc(-c2ccccc2)c1", "TEST_VALUE": 1.70}
